# TESTED ON: BCRP (BCRP-MDCKII monolayer) (Homo sapiens)
# Construct: host or cells: MDCKII (canine kidney) cells
# Sequence (Q9UNQ0 whole entry): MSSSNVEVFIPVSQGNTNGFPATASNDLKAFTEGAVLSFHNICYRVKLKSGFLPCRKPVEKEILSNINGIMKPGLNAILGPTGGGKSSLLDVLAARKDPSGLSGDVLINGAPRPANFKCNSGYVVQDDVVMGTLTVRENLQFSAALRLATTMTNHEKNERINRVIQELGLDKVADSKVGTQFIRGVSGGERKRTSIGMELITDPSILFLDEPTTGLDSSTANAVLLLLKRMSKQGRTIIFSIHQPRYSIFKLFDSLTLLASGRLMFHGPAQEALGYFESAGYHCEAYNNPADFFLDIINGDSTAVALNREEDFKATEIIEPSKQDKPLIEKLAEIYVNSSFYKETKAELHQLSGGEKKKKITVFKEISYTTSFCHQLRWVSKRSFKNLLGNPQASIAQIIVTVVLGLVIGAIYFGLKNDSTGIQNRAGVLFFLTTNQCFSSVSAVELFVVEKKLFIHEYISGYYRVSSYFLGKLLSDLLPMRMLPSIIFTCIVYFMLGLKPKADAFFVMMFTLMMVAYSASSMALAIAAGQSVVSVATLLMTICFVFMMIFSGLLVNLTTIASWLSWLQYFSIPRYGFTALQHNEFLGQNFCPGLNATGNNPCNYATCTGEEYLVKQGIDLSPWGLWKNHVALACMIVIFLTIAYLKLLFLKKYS
# PROTOCOL NOTES: MDCKII-BCRP bidirectional transport assay
# Assay type: in vitro ADME
# RUN CONDITIONS: apical to basolateral
# Experimental: Exemplary compounds were tested for cell permeability in Caco-2, MDCKII-MDR1 and MDCKII-BCRP cell lines with efflux transporter engagement inferred from the efflux ratios determined. Procedures and results are described below. […] This feature of certain compounds is in part due to efflux transporter engagement. […] The transport assay can be performed between days 12 to day 15 using ready to use PreadyPort™ BCRP-MDCKII monolayer in 96 well plate. […]
ENDPOINT: MDCK-BCRP: Papp A-B

1) Cc1nc(-c2ccc(C)c(NC(=O)c3cnc4ccc(N(C)C)cn34)c2)no1 [Compound I-205] : 23.5 10^−6 cm/s
2) Cc1ccc(-c2noc(C3CCC(=O)N3C)n2)cc1NC(=O)c1cnc2ccccn12 (racemic) [Compound I-326] : 1.07 10^−6 cm/s
3) CCCNc1ccn2c(C(=O)Nc3cc(-c4noc([C@H]5C[C@@H]5F)n4)ccc3C)cnc2c1 [Compound I-304] : 5.05 10^−6 cm/s
4) Cc1ccc(-c2noc(CC(C)O)n2)cc1NC(=O)c1cnc2ccccn12 (racemic) [Compound I-363] : 3.24 10^−6 cm/s
5) COC(=O)N1CC(c2nc(-c3ccc(C)c(NC(=O)c4cnn5cc(Br)ccc45)c3)no2)C1 [Compound I-312] : 13.3 10^−6 cm/s
6) Cc1ccc(-c2noc(C3(N)CC4(CC(F)(F)C4)C3)n2)cc1NC(=O)c1cnc2ccccn12 [Compound I-307] : 7.39 10^−6 cm/s
7) Cc1ccc(-c2noc(CC3CC(F)(F)C3)n2)cc1NC(=O)c1cnc2ccccn12 [Compound I-124] : 9.07 10^−6 cm/s
8) Cc1ccc(-c2noc(CO)n2)cc1NC(=O)c1cnc2ccccn12 [Compound I-337] : 3.73 10^−6 cm/s

* * *

# Test system: Caco-2 cells
# PROTOCOL NOTES: Caco-2 permeability assay
# Type: in vitro ADME
# RUN CONDITIONS: Caco-2, apical to basolateral
# Procedure: Exemplary compounds were tested for cell permeability in Caco-2, MDCKII-MDR1 and MDCKII-BCRP cell lines with efflux transporter engagement inferred from the efflux ratios determined. Procedures and results are described below. […] […] And permeation of lucifer yellow through the monolayer was measured to evaluate the cellular integrity. […]
Reported Caco-2: Papp A-B is given for each of the following compounds.
ENDPOINT: Caco-2: Papp A-B

1) COC(=O)N1CC(c2nc(-c3ccc(C(F)F)c(NC(=O)c4cnc5ccccn45)c3)no2)C1 : 9.62 10^−6 cm/s
2) Cc1ccc(-c2noc(CC(C)(C)O)n2)cc1NC(=O)c1cnc2ccccn12 : 9.39 10^−6 cm/s
3) Cc1nc(-c2ccc(Cl)c(NC(=O)c3cnc4ccccn34)c2)no1 : 12.9 10^−6 cm/s
4) Cc1ccc(-c2noc([C@H]3CC(F)(F)CN3)n2)cc1NC(=O)c1cnc2ccccn12 : 9.88 10^−6 cm/s
5) Cc1ccc(-c2noc([C@H]3C[C@@H]3F)n2)cc1NC(=O)c1cnc2cc(OC(F)(F)F)ccn12 : 7.81 10^−6 cm/s
6) Cc1ccc(-c2noc(C3(N)CC4(CC(F)(F)C4)C3)n2)cc1NC(=O)c1cnc2ccccn12 : 9.28 10^−6 cm/s
7) Cc1ccc(-c2noc(C3(C)CC(F)(F)CN3)n2)cc1NC(=O)c1cnc2ccccn12 (racemic) : 18.2 10^−6 cm/s
8) Cc1ccc(-c2noc([C@H](C)O)n2)cc1NC(=O)c1cnc2ccccn12 : 6.26 10^−6 cm/s
9) Cc1nc(-c2ccc(C)c(NC(=O)c3cnc4ccccn34)c2)no1 : 12.7 10^−6 cm/s
10) COCCOCc1ccn2c(C(=O)Nc3cc(-c4noc([C@H]5C[C@@H]5F)n4)ccc3C)cnc2c1 : 11.8 10^−6 cm/s
11) CCCS(=O)(=O)N1CC(c2nc(-c3ccc(Cl)c(NC(=O)c4cnc5ccccn45)c3)no2)C1 : 16.5 10^−6 cm/s
12) Cc1ccc(-c2noc(C(C)NS(C)(=O)=O)n2)cc1NC(=O)c1cnc2ccccn12 (single isomer, unassigned) : 0.50 10^−6 cm/s
13) COC(=O)N1CC(c2nc(-c3ccc(C)c(NC(=O)c4cnn5ccc(Br)cc45)c3)no2)C1 : 14 10^−6 cm/s
14) Cc1ccc(-c2noc(C3CC(F)C3)n2)cc1NC(=O)c1cnc2ccccn12 (centres unmarked) : 17.1 10^−6 cm/s
15) COC(=O)N1CC(c2nc(-c3ccc(Cl)c(NC(=O)c4cnc5ccccn45)c3)no2)C1 : 22.2 10^−6 cm/s
16) Cc1ccc(-c2noc(CCO)n2)cc1NC(=O)c1cnc2ccccn12 : 7.03 10^−6 cm/s
17) Cc1ccc(-c2noc([C@H]3C[C@@H]3F)n2)cc1NC(=O)c1cnc2ccc(C#N)cn12 : 16.5 10^−6 cm/s
18) Cc1ccc(-c2noc(C3CC(OCCF)C3)n2)cc1NC(=O)c1cnc2ccccn12 (centres unmarked) : 20.6 10^−6 cm/s
19) CCCNc1ccn2c(C(=O)Nc3cc(-c4noc([C@H]5C[C@@H]5F)n4)ccc3C)cnc2c1 : 4.31 10^−6 cm/s
20) Cc1ccc(-c2noc(C3CCS(=O)(=O)C3)n2)cc1NC(=O)c1cnc2ccccn12 (racemic) : 1.25 10^−6 cm/s
21) Cc1ccc(-c2noc([C@@H](C)O)n2)cc1NC(=O)c1cnc2ccccn12 : 8.5 10^−6 cm/s
22) Cc1ccc(-c2noc(C3CC(C)(F)C3)n2)cc1NC(=O)c1cnc2ccccn12 (centres unmarked) : 14.5 10^−6 cm/s
23) CNC(=O)N1CC(c2nc(-c3ccc(C)c(NC(=O)c4cnc5ccccn45)c3)no2)C1 : 0.14 10^−6 cm/s

* * *

# TESTED ON: wtKIT (Homo sapiens)
# Construct: 1888289AM in the reaction mixtures
# Sequence (P10721 26-976): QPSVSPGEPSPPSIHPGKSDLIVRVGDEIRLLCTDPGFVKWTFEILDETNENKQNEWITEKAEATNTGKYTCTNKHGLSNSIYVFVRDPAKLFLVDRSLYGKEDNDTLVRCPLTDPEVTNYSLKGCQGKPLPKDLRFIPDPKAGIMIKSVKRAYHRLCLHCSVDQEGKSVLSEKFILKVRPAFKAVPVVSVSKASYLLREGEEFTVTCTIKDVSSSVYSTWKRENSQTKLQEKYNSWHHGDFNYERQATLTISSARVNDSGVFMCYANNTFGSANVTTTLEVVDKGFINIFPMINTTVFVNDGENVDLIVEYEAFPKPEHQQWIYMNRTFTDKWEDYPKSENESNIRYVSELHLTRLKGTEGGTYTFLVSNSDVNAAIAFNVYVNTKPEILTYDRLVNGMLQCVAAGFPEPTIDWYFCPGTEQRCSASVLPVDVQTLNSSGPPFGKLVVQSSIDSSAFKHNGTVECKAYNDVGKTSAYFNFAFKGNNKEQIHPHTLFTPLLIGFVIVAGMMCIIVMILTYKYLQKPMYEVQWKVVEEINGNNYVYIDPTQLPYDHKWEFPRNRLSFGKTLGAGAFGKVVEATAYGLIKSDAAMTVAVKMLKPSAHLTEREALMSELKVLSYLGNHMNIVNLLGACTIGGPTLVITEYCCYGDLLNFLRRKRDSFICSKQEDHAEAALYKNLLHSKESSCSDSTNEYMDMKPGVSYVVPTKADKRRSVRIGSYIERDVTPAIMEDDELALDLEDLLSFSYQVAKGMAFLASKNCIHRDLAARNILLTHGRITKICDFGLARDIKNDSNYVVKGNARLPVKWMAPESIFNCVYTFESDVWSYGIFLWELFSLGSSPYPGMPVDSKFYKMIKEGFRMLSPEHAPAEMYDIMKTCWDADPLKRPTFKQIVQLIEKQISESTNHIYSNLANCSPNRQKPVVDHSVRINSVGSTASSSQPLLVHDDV
# PROTOCOL NOTES: HTRF biochemical assay, wtKIT (phosphorylation of a peptide substrate)
# RUN CONDITIONS: Table 4
ENDPOINT: IC50

1) Cc1ccc(-c2noc(C[C@H](O)C(F)F)n2)cc1NC(=O)c1cnc2cc(OCCCC(C)(C)O)ccn12 : ≤ 50 nM
2) COc1ccn2c(C(=O)Nc3cc(-c4noc(-c5ccccc5)n4)ccc3C)cnc2c1 : 500 to 5000 nM
3) Cc1ccc(-c2noc(CC(O)C(F)F)n2)cc1NC(=O)c1cnc2cc(COCCO)ccn12 (single isomer, unassigned) : 50 to 500 nM
4) Cc1ccc(-c2noc([C@H]3C[C@@H]3F)n2)cc1NC(=O)c1cnc2ccc(F)cn12 : ≤ 50 nM
5) Cc1ccc(-c2noc(C3CC(O)(C(F)F)C3)n2)cc1NC(=O)c1cnc2ccccn12 (stereo not shown) : 50 to 500 nM
6) Cc1ccc(-c2noc(C[C@H](O)C(F)F)n2)cc1NC(=O)c1cnc2cc(-c3cscn3)ccn12 : ≤ 50 nM
7) Cc1ccc(-c2noc(C3CC3F)n2)cc1NC(=O)c1cnc2cc(COC3CC(O)C3)ccn12 (mixture of isomers) [Compound I-72] : ≤ 50 nM

* * *

# PROTOCOL NOTES: Three time point assay for plasma, brain and testes distribution after oral dosing
# Assay type: in vivo, rat
# RUN CONDITIONS: rat, oral dosing, time point 2 h
ENDPOINT: Kp brain/plasma

1. Cc1cc(C)cc(Nc2ccc3ncc(C(=O)Nc4cc(-c5noc([C@H]6C[C@@H]6F)n5)ccc4C)n3c2)c1 : 0.47
2. COC(=O)N1CC(c2nc(-c3ccc(Cl)c(NC(=O)c4cnc5ccccn45)c3)no2)C1 : 0.50
3. Cc1ccc(-c2noc(CC(C)O)n2)cc1NC(=O)c1cnc2ccccn12 (racemic) : 0.06

* * *

# TESTED ON: PDGFRα (Homo sapiens, UniProt P16234)
# Construct: purchased Millipore 14-467 (lot 26321_ACTI)
# Sequence (P16234 24-1089): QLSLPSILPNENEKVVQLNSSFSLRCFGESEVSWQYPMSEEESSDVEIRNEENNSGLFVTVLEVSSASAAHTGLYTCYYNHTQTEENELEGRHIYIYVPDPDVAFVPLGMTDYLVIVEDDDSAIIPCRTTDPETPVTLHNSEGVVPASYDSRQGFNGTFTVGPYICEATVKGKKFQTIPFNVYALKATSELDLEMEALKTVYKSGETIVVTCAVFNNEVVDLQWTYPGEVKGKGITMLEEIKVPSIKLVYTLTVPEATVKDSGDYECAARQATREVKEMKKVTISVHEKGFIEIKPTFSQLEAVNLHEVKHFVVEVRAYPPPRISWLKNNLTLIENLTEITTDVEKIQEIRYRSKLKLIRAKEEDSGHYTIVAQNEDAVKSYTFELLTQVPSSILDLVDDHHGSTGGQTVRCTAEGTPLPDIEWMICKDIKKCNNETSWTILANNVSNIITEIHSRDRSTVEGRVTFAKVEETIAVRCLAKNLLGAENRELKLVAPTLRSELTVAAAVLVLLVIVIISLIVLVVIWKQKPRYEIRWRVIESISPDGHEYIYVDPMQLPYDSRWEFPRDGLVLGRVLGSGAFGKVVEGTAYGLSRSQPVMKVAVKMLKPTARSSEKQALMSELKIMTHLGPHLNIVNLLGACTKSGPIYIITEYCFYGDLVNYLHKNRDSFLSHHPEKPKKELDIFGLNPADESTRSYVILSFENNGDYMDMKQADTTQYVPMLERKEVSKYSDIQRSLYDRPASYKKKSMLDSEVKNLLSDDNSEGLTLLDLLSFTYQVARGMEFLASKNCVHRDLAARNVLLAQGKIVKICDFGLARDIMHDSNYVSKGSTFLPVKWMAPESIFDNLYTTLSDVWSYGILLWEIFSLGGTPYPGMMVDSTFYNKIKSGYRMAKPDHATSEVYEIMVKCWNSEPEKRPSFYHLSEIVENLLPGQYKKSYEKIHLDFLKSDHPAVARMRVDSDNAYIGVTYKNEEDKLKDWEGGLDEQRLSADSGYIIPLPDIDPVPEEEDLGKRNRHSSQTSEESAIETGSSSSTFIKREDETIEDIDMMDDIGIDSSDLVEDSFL
# PROTOCOL NOTES: Caliper biochemical assay, PDGFRα
# RUN CONDITIONS: Table 6
pIC50: −log10 of the molar value.
Reported pIC50 is given for each of the following compounds.
ENDPOINT: pIC50

1) Cc1ccc(-c2noc(CC3CC(F)(F)C3)n2)cc1NC(=O)c1cnc2ccccn12 [Compound I-124] : 6.30 to 7.30
2) CCOC1CC(c2nc(-c3ccc(C)c(NC(=O)c4cnc5ccccn45)c3)no2)C1 (stereo not drawn) [Compound I-309] : 5.30 to 6.30
3) Cc1nc(-c2ccc(C)c(NC(=O)c3cnc4cc(C(F)F)ccn34)c2)no1 [Compound I-134] : 5.30 to 6.30

* * *

Reported Brain concentration is given for each of the following compounds.
# PROTOCOL NOTES: Three time point assay for plasma, brain and testes distribution after oral dosing
# Type: in vivo, rat
# RUN CONDITIONS: rat, oral dosing, time point 2 h
ENDPOINT: Brain concentration (ng/g)

1) Cc1ccc(-c2noc(C(C)NS(C)(=O)=O)n2)cc1NC(=O)c1cnc2ccccn12 (single isomer, unassigned) [Compound I-238] : 0
2) COC(=O)N1CC(c2nc(-c3ccc(C(F)F)c(NC(=O)c4cnc5ccccn45)c3)no2)C1 [Compound I-225] : 506
3) Cc1ccc(-c2noc(CC(C)O)n2)cc1NC(=O)c1cnc2ccccn12 (racemic) [Compound I-363] : 46
4) Cc1ccc(-c2noc([C@H]3C[C@@H]3F)n2)cc1NC(=O)c1cnc2ccc(C#N)cn12 [Compound I-384] : 21.4
5) COCCOCc1ccn2c(C(=O)Nc3cc(-c4noc([C@H]5C[C@@H]5F)n4)ccc3C)cnc2c1 [Compound I-84] : 400
6) Cc1ccc(-c2noc([C@H](C)O)n2)cc1NC(=O)c1cnc2ccccn12 [Compound I-271] : 325
